Test: Pharmacokinetics of artesunate (AS) in plasma after multiple intravenous doses, compartmental analysis (Phase 1b)
Format: in vivo, human
Conditions: human, plasma, iv, 8 mg/kg, Day 2; AS 8 mg/kg iv daily for 3 days, 2 min infusion; mean (CV%), n = 6; CA
attribute.measured: Cmax

Lab note: C[C@H]1[C@H](OC(=O)CCC(=O)O)O[C@@H]2O[C@@]3(C)CC[C@H]4[C@H](C)CC[C@@H]1[C@@]24OO3 [AS] gave Cmax of 74.6 µg/mL

* * *

Experiment: Pharmacokinetics of dihydroartemisinin (DHA), active metabolite, in plasma after multiple intravenous AS doses, non-compartmental analysis
Type: in vivo, human
Details: human, plasma, intravenous; all days and dose cohorts
attribute.measured: CL/F

Note to self: CL/F recorded for C[C@H]1[C@@H](O)O[C@@H]2O[C@@]3(C)CC[C@H]4[C@H](C)CC[C@@H]1[C@@]24OO3 [DHA, dihydroartemisinin] was 14.6 to 19.4 mL/min/kg
